These entries and their values trace back to patent US7439077B2.

Test target: HSA (Homo sapiens, UniProt P02768)
Sequence (P02768 25-609): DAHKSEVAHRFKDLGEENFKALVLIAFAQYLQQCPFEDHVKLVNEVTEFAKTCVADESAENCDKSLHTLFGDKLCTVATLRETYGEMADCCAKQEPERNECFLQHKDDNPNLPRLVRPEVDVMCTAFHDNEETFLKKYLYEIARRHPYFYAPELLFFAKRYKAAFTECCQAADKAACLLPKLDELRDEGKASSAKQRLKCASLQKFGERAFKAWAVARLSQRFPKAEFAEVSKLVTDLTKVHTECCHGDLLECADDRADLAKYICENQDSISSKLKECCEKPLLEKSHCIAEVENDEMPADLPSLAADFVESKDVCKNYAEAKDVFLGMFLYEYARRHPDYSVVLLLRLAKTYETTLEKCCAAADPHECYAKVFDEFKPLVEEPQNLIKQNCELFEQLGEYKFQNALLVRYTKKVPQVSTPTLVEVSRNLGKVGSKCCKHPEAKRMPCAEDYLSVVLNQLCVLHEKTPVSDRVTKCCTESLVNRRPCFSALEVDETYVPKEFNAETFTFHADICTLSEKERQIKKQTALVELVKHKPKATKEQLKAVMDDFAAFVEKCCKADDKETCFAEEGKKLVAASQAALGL
Method: BIACORE binding to HSA
Measurement parameters: human, HSA (human serum albumin), Protein: HSA; read-out: KD2
Metric name: Kd (µM)
Field: numeric (µM). Do not append units.

Bench note, HSA (Homo sapiens, UniProt P02768): CCCCCCCCC(CC(C)=O)c1c(O)c2ccccc2oc1=O (stereo not shown) , Kd reads 130

* * *

I'd be grateful if you could share measured Kd for these entries.
The reply should be a number in µM, with the unit left off.

GET /values?item= CC(=O)CC(Cc1ccc(Cl)cc1)c1c(O)c2ccccc2oc1=O (stereo not drawn) [NCP 023a] &system= Rat Albumin (Rattus norvegicus) returns Kd: 11.8

Record CC(=O)CC(Cc1ccccc1)c1c(O)c2ccccc2oc1=O (stereo not drawn) [NCP 023] has Rat Albumin (Rattus norvegicus) Kd equal to 85

Response field Kd (Rat Albumin (Rattus norvegicus)) for item CCCCCCCCC(CC(C)=O)c1c(O)c2ccccc2oc1=O (stereo not drawn) [NCP 014] : 4.6
